- System: BT-474
- measurement-notes: normalised response (% of control), CellTiter-Glo; higher = more viable cells (100 = DMSO, 0 = benzethonium chloride kill control)
- study-conditions: incubation time: 72 h
Below is a list of entries, each paired with its recorded normalised response value.

{"columns": ["compound", "normalised response [%]"],
 "data": [
  ["CC(C)c1c(C(=O)Nc2ccccc2)c(-c2ccccc2)c(-c2ccc(F)cc2)n1CC[C@@H](O)C[C@@H](O)CC(=O)O [Atorvastatin] (10 nM)", 100],
  ["O=C(O)CCCc1ccc(N(CCCl)CCCl)cc1 [Chlorambucil] (1 nM)", 102],
  ["CC[C@]1(O)C[C@H]2CN(CCc3c([nH]c4ccccc34)[C@@](C(=O)OC)(c3cc4c(cc3OC)N(C=O)[C@H]3[C@@](O)(C(=O)OC)[C@H](OC(C)=O)[C@]5(CC)C=CCN6CC[C@]43[C@@H]65)C2)C1 [Vincristine] (0.1 nM)", 97.8],
  ["CO[C@H]1C[C@@H]2CC[C@@H](C)[C@@](O)(O2)C(=O)C(=O)N2CCCC[C@H]2C(=O)O[C@H]([C@H](C)C[C@@H]2CC[C@@H](OCCO)[C@H](OC)C2)CC(=O)[C@H](C)/C=C(\\C)[C@@H](O)[C@@H](OC)C(=O)[C@H](C)C[C@H](C)/C=C/C=C/C=C/1C [Everolimus] (0.01 nM)", 103],
  ["CC(C)c1c(C(=O)Nc2ccccc2)c(-c2ccccc2)c(-c2ccc(F)cc2)n1CC[C@@H](O)C[C@@H](O)CC(=O)O [Atorvastatin] (1000 nM)", 66.1],
  ["Cn1cncc1[C@@](N)(c1ccc(Cl)cc1)c1ccc2c(c1)c(-c1cccc(Cl)c1)cc(=O)n2C [Tipifarnib] (10 nM)", 94.4],
  ["Cc1ccc(NC(=O)c2ccc(CN3CCN(C)CC3)cc2)cc1Nc1nccc(-c2cccnc2)n1 [Imatinib] (1000 nM)", 102]
]}

----------
- Tested on: BT-549
- measurement-notes: normalised response (% of control), CellTiter-Glo; higher = more viable cells (100 = DMSO, 0 = benzethonium chloride kill control)
- study-conditions: incubation time: 72 h
Below is a list of entries, each paired with its recorded normalised response value.

{"columns": ["compound", "target-entity", "normalised response"],
 "data": [
  ["CC(C)c1c(C(=O)Nc2ccccc2)c(-c2ccccc2)c(-c2ccc(F)cc2)n1CC[C@@H](O)C[C@@H](O)CC(=O)O [Atorvastatin] (1000 nM)", "BT-549", "95.6%"],
  ["Cc1ccc(NC(=O)c2ccc(CN3CCN(C)CC3)cc2)cc1Nc1nccc(-c2cccnc2)n1 [Imatinib] (10 nM)", "BT-549", "96.7%"],
  ["CO[C@H]1C[C@@H]2CC[C@@H](C)[C@@](O)(O2)C(=O)C(=O)N2CCCC[C@H]2C(=O)O[C@H]([C@H](C)C[C@@H]2CC[C@@H](OCCO)[C@H](OC)C2)CC(=O)[C@H](C)/C=C(\\C)[C@@H](O)[C@@H](OC)C(=O)[C@H](C)C[C@H](C)/C=C/C=C/C=C/1C [Everolimus] (10 nM)", "BT-549", "64.9%"]
]}

----------
Below is a list of entries, each paired with its recorded normalised response value.
- Test system: CAL-85-1
- measurement-notes: normalised response (% of control), CellTiter-Glo; higher = more viable cells (100 = DMSO, 0 = benzethonium chloride kill control)
- study-conditions: incubation time: 72 h

{"columns": ["molecule", "value-unit", "normalised response"],
 "data": [
  ["O=C(O)CCCc1ccc(N(CCCl)CCCl)cc1 [Chlorambucil] (1 nM)", "%", 99.4],
  ["NS(=O)(=O)OC[C@@H]1C[C@@H](n2ccc3c(N[C@H]4CCc5ccccc54)ncnc32)C[C@@H]1O [Pevonedistat] (10 nM)", "%", 100],
  ["CO[C@H]1C[C@@H]2CC[C@@H](C)[C@@](O)(O2)C(=O)C(=O)N2CCCC[C@H]2C(=O)O[C@H]([C@H](C)C[C@@H]2CC[C@@H](OCCO)[C@H](OC)C2)CC(=O)[C@H](C)/C=C(\\C)[C@@H](O)[C@@H](OC)C(=O)[C@H](C)C[C@H](C)/C=C/C=C/C=C/1C [Everolimus] (10 nM)", "%", 67.1]
]}
